tested on: KM12; experiment: NCI tumour cell line growth inhibition, 48 h
Calls of active or inactive are those of the source. No stated cut-off is given here; in the data, active = GI50 up to about 1.1 µM and inactive = higher. Where a SMILES comes first, the peptide text is derived from it. [ ]: non-standard residue; d: D form. The star is where a group is joined. ξ: configuration not given here. ξPhe(4-NO2) = NC(Cc1ccc([N+](=O)[O-])cc1)C(=O)O; Boc = CC(C)(C)OC(=O)*; OBn = c1ccc(CO*)cc1
Classes used: true (1) for active, false (0) for inactive

# molecule, study-system, assigned-class
rows = [
    ("COCC(=O)CP(=O)(OC)OC", "KM12", "false (0)"),
    ("Fc1cc(-c2ncc(Cl)cc2Cl)c2cccccc1-2", "KM12", "false (0)"),
    ("CC(C)(C)C1=Cc2cc3cc(C(C)(C)C)[nH]c(=O)c3cc2S(=O)(=O)N1", "KM12", "false (0)"),
    ("O=C(CCC(=O)Nc1ccc(Cl)cc1)CC(=O)c1ccc(F)cc1", "KM12", "false (0)"),
    ("Cn1c(N)c(/C=N/NC(=O)CC#N)c(=O)n(C)c1=O", "KM12", "false (0)"),
    ("CC(C)(C)OC(=O)NC(Cc1ccc([N+](=O)[O-])cc1)C(=O)NCC(=O)OCc1ccccc1 (stereo unspecified) (Boc-[ξPhe(4-NO2)]-Gly-OBn)", "KM12", "false (0)"),
    ("S=C1/C(=N/c2ccccc2)N(c2ccccc2)/C(=N\\c2cccc[n+]2Cc2ccccc2)N1c1ccccc1", "KM12", "false (0)"),
    ("CCOC(=O)NC(=O)c1cn(C2OC(COC(=O)CCCCCCCCC(=O)OCC3OC(n4cc(C(=O)NC(=O)OCC)c(=O)[nH]c4=O)C(O)C3O)C(O)C2O)c(=O)[nH]c1=O (stereo unspecified)", "KM12", "false (0)"),
    ("c1ccc2c(c1)Cn1c-2nc2ccccc21", "KM12", "false (0)"),
    ("COc1cc2c(cc1OCCCOS(C)(=O)=O)N=C[C@@H]1CCCN1C2=O", "KM12", "false (0)"),
    ("COc1ccc(NC(=O)C(=O)C(C(=O)c2ccccc2)C2OC(=O)c3ccccc32)c([N+](=O)[O-])c1 (stereo unspecified)", "KM12", "false (0)"),
    ("N#Cc1c(O)c2ccccc2[nH]c1=O", "KM12", "false (0)"),
    ("CCOC(=O)/C(C(=O)c1ccccc1)=C1\\N[C@H](C(=O)OCC)CS1", "KM12", "false (0)"),
    ("NC(=O)NC1C(C(N)=O)N(Cc2ccccc2)C(=O)N1Cc1ccccc1 (stereo unspecified)", "KM12", "false (0)"),
    ("COc1cc2c(cc1OC)C1=Cc3ccc(OC)c(OC)c3C(C#N)N1CC2 (stereo unspecified)", "KM12", "false (0)"),
    ("O=C(Cc1ccccc1[N+](=O)[O-])C(CO)c1ccccc1[N+](=O)[O-] (stereo unspecified)", "KM12", "false (0)"),
    ("O=C1NC(=O)C2C(=O)NC(=O)C1C2(c1ccccc1)c1cc[nH]c1 (stereo unspecified)", "KM12", "false (0)"),
    ("COC1OC(OC)C2C(c3c(C)cc(C)cc3C)=NOC12 (stereo unspecified)", "KM12", "false (0)"),
    ("O=C1CC(c2cccc(F)c2)Nc2cc3c(cc21)OCO3 (stereo unspecified)", "KM12", "true (1)"),
    ("O=C(Nc1nc(C23CC4CC(CC(C4)C2)C3)cs1)c1cc2cc(Br)cc(Br)c2oc1=O", "KM12", "false (0)"),
    ("CCOC(=O)CSc1nc(-c2ccc(Cl)cc2)c(C#N)c(=O)[nH]1", "KM12", "false (0)"),
]
